# Tested on: MS2 coat protein
# method-notes: apparent KD of MS2 coat protein; designed switch direction (-1 OFF switch, 1 ON switch): -1; higher = weaker reporter binding
# run-parameters: input ligand: none
property-label: apparent KD of MS2 coat protein (µM)
Record the value in µM, omitting the unit from your answer.

Field: example entries. Status: answers known.
biosequence	measured-value
UGAUCUAGCGGAGGAUAUACAUGAGGAUCACCCAUGUAUAGGCUAUGACCGUAGUCGUGGAACAUGUAGAAGGCCGCUAGAUCU [JL ENG2 3.79] (Eterna round: R96, puzzle: Exclusion NG 2)	0.0459
ACAUGUCAUUGAGGAUAUUGCAAACAUGAGGAUCACCCAUGUAUACGGAUGCUCUUACGUGAGUUCGAGAAGGCGAUGUACAUU [Ex NG2 #91] (Eterna round: R96, puzzle: Exclusion NG 2)	0.0462
GUGCUACAUGAGGAUCACCCAUGUCAGGAUAUGCGAAUUUCAUCAAAAGAUGAAAUUUGCAGAAGGGACAACAC [Omei Ex1 A18] (Eterna round: R97, puzzle: Exclusion 1)	0.0385
GUAAAAUAAGCUUAUUUACACAUGAGGAUCACCCAUGUAUUGGACGGACUCCUGACCUCAAUUAUAUGCUCGUAUCG [Eternabot (L1) Solution 41] (Eterna round: R97, puzzle: Sensor, turn-off variant 1)	0.0795
CCCGCAGGCUUUUUGCUCGACAUGAGGAUCACCCAUGUUGAAUGGGUUGUGUGUGUGUGAUACAUAUAUAUGGUCCU [-26.2, -50.8 kcal, A 19%] (Eterna round: R97, puzzle: Sensor, turn-off variant 1)	0.349

Entry AGGUGCUUCAGGAGACAUGAGGAUCACCCAUGUUGAGUUAGCGAGGAUAUCGGUAACCAUUGUGAUGAGAAGGCGCAAACCAGA [Ex NG3 #44] (Eterna round: R96, puzzle: Exclusion NG 3) has what apparent KD of MS2 coat protein? 0.0473

Would you kindly repeat that for UGUUGUCGCGCAGGAUAUGAGGAUCACCCAUAUAGAGGAUAUGAAAAGAAGGCUCUGAGGAUCACCCAGAAGGGCGGGACAACU [pwkr exNG2 2xF5 2xFMN.23] (Eterna round: R96, puzzle: Exclusion NG 2) ? 0.222

Then this sequence: CCAACAAGCUUUUUGCUCGACAUGAGGAUCACCCAUGUAAAAUGGGUAAAUUUAAAUUUAAAUUUAUUUAAAUUUGG [-16.3, -42.5 kcal, A 35%] (Eterna round: R97, puzzle: Sensor, turn-off variant 1) 0.728

Another sequence to check: GUAGAGUGAGGAUAUACGAGAUCGAAAGAUCAACGAUCCAAACAUGAGGAUCACCCAUGUAGAAGGCACUCUAC [Eli x2 4.008] (Eterna round: R97, puzzle: Exclusion 2) 0.0271

What about this sequence? CCCUAGUAUGUAGGAUAUCGGUCAGUUUCUGAUCGAGAAGGACAUGAGGAUCACCCAUGUAAAACGUCCGGUUUCUGGAUAGGG [JL ENG1 3.56] (Eterna round: R96, puzzle: Exclusion NG 1) 0.0246

What would you report for UCUAUUUUGCGAGGAUAUCGACCAUUCCUCUUUACAUGAGGAUCACCCAUGUUCUUUUUCUACAACGAGAAGGCGCUCAUAGUU [JR_ExcNG2_Sub062] (Eterna round: R96, puzzle: Exclusion NG 2) ? 0.0616

// repeat for CAGUGCUGACGGAGAUCCAACAUGAGGAUCACCCAUGUCUCAAAAGCUUUUUGCUCGUCUUAUCCUCCUCAGUACUC [Mat - Sensor, turn-off var - Eli Mod - D57] (Eterna round: R97, puzzle: Sensor, turn-off variant 1) and report 0.0192

Next entry: AUGUUACAUGAGGAUCACCCAUGUGAGGAUAUGAGUCAGUCACGGUGACGUGGCUGACUCAGAAGGCACUAUGG [JL-ex1-4.39 salish99 mod] (Eterna round: R97, puzzle: Exclusion 1) 0.279

Queued: UCGGCGUCAGGAUAUCCAAUAUAUGACAUGAGGAUCACCCAUGUUUCCACUCGUACCUCCGGAGAAGGGACGAAUA [Ex5 #91] (Eterna round: R97, puzzle: Exclusion 5) 0.0357
